target: PPAR delta (Homo sapiens); assay: Transient transfection (transactivation) assay in CV-1 cells, GAL4-PPAR chimera, luciferase reporter
Sequence (Q03181 211-439 limits assumed): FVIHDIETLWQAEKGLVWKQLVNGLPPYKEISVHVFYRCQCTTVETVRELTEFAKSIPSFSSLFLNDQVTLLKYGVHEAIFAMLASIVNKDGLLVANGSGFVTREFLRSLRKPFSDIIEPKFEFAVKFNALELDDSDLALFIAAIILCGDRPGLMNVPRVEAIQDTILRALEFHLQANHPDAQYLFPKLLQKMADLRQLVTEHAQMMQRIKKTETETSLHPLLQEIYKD
pEC50: −log10 of the molar value.
Measure: pEC50

Find the recorded pEC50 belonging to Cc1ccc(S(=O)(=O)N2CCN(c3ccc(C(F)(F)F)c(F)c3)C[C@@H]2C)cc1CC(=O)O [Example 217] and report it. > 5.30

Same question for Cc1ccc(CC(=O)O)cc1S(=O)(=O)N1CCN(c2ccc(C(F)(F)F)cc2[N+](=O)[O-])CC1 [Example 158] please. 4.00 to 5.30

Same question for Cc1ccc(S(=O)(=O)N2CCC(c3nc(C(F)(F)F)cs3)CC2)cc1CC(=O)O [Example 46] please. < 4.00

***
Find the recorded pEC50 belonging to Cc1ccc(S(=O)(=O)N2CCN(c3ccccc3)CC2)cc1CC(=O)O [Example 181] and report it. 4.00 to 5.30

Same question for Cc1cc(S(=O)(=O)N2[C@H](C)CN(c3ccc(C(F)(F)F)cn3)C[C@@H]2C)cc(CC(=O)O)c1Br [Example 197] please. > 5.30

Same question for Cc1cc(CC(=O)O)cc(S(=O)(=O)N2CCN(c3ccc(OC(F)(F)F)cc3)CC2)c1 [Example 223] please. > 5.30

Same question for O=C(O)Cc1cccc(S(=O)(=O)N2CCN(c3ccc(C(F)(F)F)cc3[N+](=O)[O-])CC2)c1 [Example 128] please. 4.00 to 5.30

Same question for Cc1ccc(S(=O)(=O)N2CCC(c3nccs3)CC2)cc1CC(=O)O [Example 43] please. < 4.00
